Measured inhibition by item
biological target: UniProt P11388; assay: Inhibition of DNA topoisomerase 2 in human KB cells assessed as enzyme-[methyl-3H]thymidine-labeled DNA complex formation at 10 uM after 1 hr by K-SDS precipitation assay; assay type: cell-based
Sequence (P11388 whole entry): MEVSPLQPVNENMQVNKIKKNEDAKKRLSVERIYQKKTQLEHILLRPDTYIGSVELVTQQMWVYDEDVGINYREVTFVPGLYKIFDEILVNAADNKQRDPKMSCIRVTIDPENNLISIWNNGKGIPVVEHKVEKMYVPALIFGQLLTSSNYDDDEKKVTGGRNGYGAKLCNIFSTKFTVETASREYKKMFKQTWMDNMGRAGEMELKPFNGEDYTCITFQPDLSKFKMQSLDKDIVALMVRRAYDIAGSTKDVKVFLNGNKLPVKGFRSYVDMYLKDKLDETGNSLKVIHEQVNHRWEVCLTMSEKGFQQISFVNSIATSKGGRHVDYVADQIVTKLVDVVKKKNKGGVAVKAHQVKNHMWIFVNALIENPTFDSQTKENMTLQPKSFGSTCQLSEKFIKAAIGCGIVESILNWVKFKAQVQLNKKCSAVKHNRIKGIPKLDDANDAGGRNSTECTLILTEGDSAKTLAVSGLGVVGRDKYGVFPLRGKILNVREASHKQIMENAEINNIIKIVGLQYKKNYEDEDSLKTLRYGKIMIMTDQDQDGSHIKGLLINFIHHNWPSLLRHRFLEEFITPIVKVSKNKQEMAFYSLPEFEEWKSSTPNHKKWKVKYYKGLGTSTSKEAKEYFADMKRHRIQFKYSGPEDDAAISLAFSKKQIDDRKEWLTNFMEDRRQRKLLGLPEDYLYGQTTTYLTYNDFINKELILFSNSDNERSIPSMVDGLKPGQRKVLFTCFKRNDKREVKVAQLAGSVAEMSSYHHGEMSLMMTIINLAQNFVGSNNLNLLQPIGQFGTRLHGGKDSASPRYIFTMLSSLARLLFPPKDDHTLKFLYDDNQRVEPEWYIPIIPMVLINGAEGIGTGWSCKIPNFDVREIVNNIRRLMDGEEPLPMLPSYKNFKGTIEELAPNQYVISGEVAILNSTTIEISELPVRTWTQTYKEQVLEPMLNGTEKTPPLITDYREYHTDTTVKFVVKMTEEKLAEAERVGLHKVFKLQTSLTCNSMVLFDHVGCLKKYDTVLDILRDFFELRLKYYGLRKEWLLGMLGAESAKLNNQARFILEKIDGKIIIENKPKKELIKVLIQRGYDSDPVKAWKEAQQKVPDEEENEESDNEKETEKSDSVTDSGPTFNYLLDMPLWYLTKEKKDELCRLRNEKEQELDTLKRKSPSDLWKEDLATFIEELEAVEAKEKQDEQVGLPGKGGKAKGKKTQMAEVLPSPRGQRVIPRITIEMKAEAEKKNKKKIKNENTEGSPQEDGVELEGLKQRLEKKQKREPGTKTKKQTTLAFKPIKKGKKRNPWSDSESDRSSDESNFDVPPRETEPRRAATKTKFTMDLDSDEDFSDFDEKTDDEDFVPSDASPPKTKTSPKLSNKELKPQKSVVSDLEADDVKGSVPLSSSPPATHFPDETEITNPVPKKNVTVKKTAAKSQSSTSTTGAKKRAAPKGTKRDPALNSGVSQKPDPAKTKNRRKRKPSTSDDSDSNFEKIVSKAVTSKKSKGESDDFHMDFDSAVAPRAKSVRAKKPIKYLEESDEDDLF
Give a bare numeral; the unit % is implied.

Molecule	inhibition, %
COc1cc([C@@H]2c3cc4c(cc3[C@@H](O[C@@H]3O[C@@H]5CO[C@@H](C)O[C@H]5[C@H](O)[C@H]3O)[C@H]3COC(=O)[C@H]23)OCO4)cc(OC)c1O [ETOPOSIDE]	100
C=CCN[C@@H]1c2cc3c(cc2[C@@H](c2cc(OC)c(O)c(OC)c2)[C@H]2C(=O)OC[C@@H]21)OCO3	84.2
COc1cc([C@@H]2c3cc4c(cc3[C@H](NCCO)[C@H]3COC(=O)[C@H]23)OCO4)cc(OC)c1O	0
COc1cc([C@@H]2c3cc4c(cc3[C@H](N)[C@H]3COC(=O)[C@H]23)OCO4)cc(OC)c1O	8
CCCN[C@@H]1c2cc3c(cc2[C@@H](c2cc(OC)c(O)c(OC)c2)[C@H]2C(=O)OC[C@@H]21)OCO3	69.7
COc1cc([C@@H]2c3cc4c(cc3[C@@H](N)[C@H]3COC(=O)[C@H]23)OCO4)cc(OC)c1O	36.4

Attention now shifts to the item below.
Lookup result for COCCN[C@@H]1c2cc3c(cc2[C@@H](c2cc(OC)c(O)c(OC)c2)[C@H]2C(=O)OC[C@@H]21)OCO3 ; measured inhibition: 111
